# experimentalProtocol: Anticancer activity against Cervical carcinoma cell line (unknown origin) assessed as cell growth inhibition
# Type: functional, cell-based
quantity: IC50

The reported value for Oc1cccc(-c2nc(N3CCOCC3)c3oc4ncccc4c3n2)c1 [PI-103] in terms of IC50 is 20 nM

----------
# testedSystem: Serine/threonine-protein kinase mTOR (Homo sapiens, UniProt P42345)
quantity: IC50 (nM)
Response body: numeric value in nM, unit text excluded.

Reported Serine/threonine-protein kinase mTOR (Homo sapiens, UniProt P42345) IC50 for item CNC(=O)Nc1ccc(-c2nc(N3CCOCC3)nc3c2C=NC3C2CCOCC2)cc1 (stereo unspecified) was 23.2
